- Tested on: W2
- procedure text: qHTS profiling for inhibitors of Plasmodium falciparum proliferation (AID 504749); note: nearly all actives have a fitted effect of over 60% in size; note: potency is the fitted concentration of half-maximal effect
- condition label: P. falciparum in erythrocytes, SYBR Green DNA, 72 h; series mostly up to 28.7 µM
- Method: NIH National Institute of Allergy and Infectious Diseases [NIAID] NIH Chemical Genomics Center [NCGC] […] Because mature erythrocytes lack DNA, only Plasmodium-derived DNA is detected. NCGC Assay Protocol Summary: The SYBR Green viability assay was adapted from a method described previously (Plouffe et al., 2008). […] The following morning, fluorescence intensity at 485(14) nm excitation and 535(25) nm emission wavelengths was measured on an EnVision (Perkin Elmer) plate reader. […]
Inconclusive results are not listed. Calls of active or inactive are those of the source. Calls come from the whole dose curve; as a rule, active = well fitted inhibition curve with a large enough effect; inconclusive = small, poorly fitted or top-dose-only effect; inactive = flat fitted curve, though single readings scatter.
observation type: Potency

molecule	tgt	observation type	result
CC1=C(c2ccc(NN=C(C#N)C#N)cc2)NNC(=O)C1	W2	Potency	inactive
CC[C@H](C)[C@H]1O[C@]2(CC[C@@H]1C)C[C@@H]1C[C@@H](C/C=C(\C)[C@H](O[C@@H]3C[C@H](OC)[C@H](O[C@@H]4C[C@H](OC)[C@@H](O)[C@H](C)O4)[C@H](C)O3)[C@@H](C)/C=C/C=C3\CO[C@@H]4[C@H](O)C(C)=C[C@@H](C(=O)O1)[C@]34O)O2	W2	Potency	1690 nM (active)
CCCSS/C(CCO)=C(/C)N(C=O)Cc1cnc(C)nc1N	W2	Potency	inactive
COc1cccc(OC)c1C(=O)NC1C(=O)N2C1SC(C)(C)C2C(=O)O (configuration not stated)	W2	Potency	inactive
CO[C@H]1C[C@@H]2CC[C@@H](C)[C@@](O)(O2)C(=O)C(=O)N2CCCC[C@H]2C(=O)O[C@H]([C@H](C)C[C@@H]2CC[C@@H](O)[C@H](OC)C2)CC(=O)[C@H](C)/C=C(\C)[C@@H](O)[C@@H](OC)C(=O)[C@H](C)C[C@H](C)/C=C/C=C/C=C/1C	W2	Potency	1200 nM (active)
O=c1ccn(C2OC(COP(=O)(O)OC3C(CO)OC(n4ccc(=O)[nH]c4=O)C3O)C(O)C2O)c(=O)[nH]1 (configuration not stated)	W2	Potency	inactive
C=CC1CN2CCC1CC2[C@@H](O)c1ccnc2ccc(OC)cc12 (some centres not stated)	W2	Potency	190 nM (active)
CC[C@@H](C)C(N)C(=O)O (some centres not stated)	W2	Potency	inactive
CCCCN1CC(O)C(O)C(O)C1CO (configuration not stated)	W2	Potency	inactive
CN1[C@@H]2CC[C@@H]1CC(OC(=O)[C@H](CO)c1ccccc1)C2 (some centres not stated)	W2	Potency	inactive
CC(=O)N[C@H]1[C@H](O[C@@H]2c3ccc(c(Cl)c3)Oc3cc4cc(c3O[C@@H]3O[C@H](CO)[C@@H](O)[C@H](O)C3C)Oc3ccc(cc3Cl)C[C@H]3NC(=O)[C@@H](N)c5ccc(O)c(c5)Oc5cc(O)cc(c5)[C@H](NC3=O)C(=O)N[C@H]4C(=O)N[C@H]3C(=O)N[C@@H]2C(=O)N[C@@H](C(=O)O)c2cc(O)cc(O[C@H]4O[C@H](CO)[C@@H](O)C(O)[C@@H]4O)c2-c2cc3ccc2O)O[C@H](CO)[C@@H](O)[C@@H]1O (some centres not stated)	W2	Potency	inactive
Cc1cnc(C(=O)O)cn1	W2	Potency	inactive
